# Measured Target: T1, PUF4 RNA-binding domain (Saccharomyces cerevisiae, UniProt P25339 537-888)
# T1 sequence: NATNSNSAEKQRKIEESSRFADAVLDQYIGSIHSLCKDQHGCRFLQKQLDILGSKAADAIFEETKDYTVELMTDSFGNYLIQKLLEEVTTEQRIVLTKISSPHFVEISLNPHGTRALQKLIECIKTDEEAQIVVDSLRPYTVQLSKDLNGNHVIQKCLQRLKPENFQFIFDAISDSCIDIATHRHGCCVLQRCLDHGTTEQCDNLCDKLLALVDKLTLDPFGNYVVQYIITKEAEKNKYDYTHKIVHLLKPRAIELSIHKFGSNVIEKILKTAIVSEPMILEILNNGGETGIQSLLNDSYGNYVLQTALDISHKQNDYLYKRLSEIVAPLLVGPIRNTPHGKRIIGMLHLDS
# Method Summary: Mg; RNA-MaP; 20 mM Na-HEPES pH 7.4, 30 mM KOAc, 0.75 mM MgCl2, 0.1% Tween-20, 5% glycerol, 0.1 mg/mL BSA, 2 mM DTT; 25 C; 0.0125-409.6 nM protein
# Experimental Setup: tags: N-His6-TEV cleaved; C-SNAP kept, Cy3B-labelled; label: tethered on chip by stalled RNA polymerase
pKd: −log10 of the molar value.
The label depends only on pKd: rule met if it is at least 8, rule not met if it is smaller.

Id_ii_S2_P4E.4_K4.3_C4.2_H4.3_A4.1_F4.1_T4.2_[T11C] (ssRNA) RNA: UUUGAUUAAUAUGAUAUCGUUCUUUCUCUACACUAUUAGCUUCUUUCUCGAUAUCAUAUUAAUCUUU: rule not met
Ic_S4_P4E.1_K4.1_C4.1_H4.1_A4.1_[A6T]_[T7A]_F4.1_[T8A]_[A9T]_T4.1 (ssRNA) RNA: UUUGACAACUGAUCGUUCUUUCUUGUAUUAAUUUCUUUCUCGAUCAGUUGUCUUU: rule not met
UCUCUUUGUACUAGUCUCUU (ssRNA) [Ic_S1_P3E.1_K3.1_C3.1_H3.1_A3.1_[T5C]_[A6T]_F3.1_[T7A]_[A8G]_T3.1]: rule not met
Ic_S2_P4E.1_K4.1_C4.1_H4.1_A4.1_[T5G]_[A6T]_[T7C]_F4.1_T4.1 (ssRNA) RNA: UUUGAUUAAUAUGAUAUCGUUCUUUCUUGUAGUCUAUUCUUUCUCGAUAUCAUAUUAAUCUUU: rule met
UCUCUUUCUACACUAUACAUCUCUU (ssRNA) [Id_iii_S1_P3E.7_K3.3_C3.3_H3.3_A3.1_F3.1_T3.2_[T9C]]: rule not met
Ic_S2_P5E.1_K5.1_C5.1_H5.1_A5.1_[T5C]_[T6A]_[A7T]_F5.1_[T8G]_T5.1 (ssRNA) RNA: UUUGAUUAAUAUGAUAUCGUUCUUUCUUGUACAUGUAUUCUUUCUCGAUAUCAUAUUAAUCUUU: rule met
UCUCUUUGUAUAGCAUCUCUU (ssRNA) [Ib_S1_P4E.1_K4.1_C4.1_H4.1_A4.1_[T7G]_F4.1_[T8C]_T4.1]: rule not met
UCUCUUUGUACGCGUUCUCUU (ssRNA) [Ic_S1_P4E.1_K4.1_C4.1_H4.1_A4.1_[T5C]_[A6G]_[T7C]_F4.1_[T8G]_[A9T]_T4.1]: rule not met
Ie_S2_P3E.2_K3.1_C3.2_H3.1_A3.1_F3.1_[+8CTCTC]_T3.2 (ssRNA) RNA: UUUGAUUAAUAUGAUAUCGUUCUUUCUCUUGUAUAUACUCUCUAUUCUUUCUCGAUAUCAUAUUAAUCUUU: rule met
UCUCUUCUUGUCCUCUAUAUAUAUCUCUU (ssRNA) [Ie_S1_P3E.2_K3.1_C3.2_H3.1_[+3CCTCT]_A3.1_F3.1_T3.2]: rule not met
Id_ii_S2_P5E.2_K5.1_C5.2_[T-1C]_H5.1_A5.1_F5.1_T5.2_[T11A]_[A12C] (ssRNA) RNA: UUUGAUUAAUAUGAUAUCGUUCUUUCUCCUGUAUUAUUAACUUCUUUCUCGAUAUCAUAUUAAUCUUU: rule met
